The following molecules are listed with their measured Kd values.
target: RAF kinases (Homo sapiens, UniProt P04049); assay: biochemical
Sequence (P04049 whole entry): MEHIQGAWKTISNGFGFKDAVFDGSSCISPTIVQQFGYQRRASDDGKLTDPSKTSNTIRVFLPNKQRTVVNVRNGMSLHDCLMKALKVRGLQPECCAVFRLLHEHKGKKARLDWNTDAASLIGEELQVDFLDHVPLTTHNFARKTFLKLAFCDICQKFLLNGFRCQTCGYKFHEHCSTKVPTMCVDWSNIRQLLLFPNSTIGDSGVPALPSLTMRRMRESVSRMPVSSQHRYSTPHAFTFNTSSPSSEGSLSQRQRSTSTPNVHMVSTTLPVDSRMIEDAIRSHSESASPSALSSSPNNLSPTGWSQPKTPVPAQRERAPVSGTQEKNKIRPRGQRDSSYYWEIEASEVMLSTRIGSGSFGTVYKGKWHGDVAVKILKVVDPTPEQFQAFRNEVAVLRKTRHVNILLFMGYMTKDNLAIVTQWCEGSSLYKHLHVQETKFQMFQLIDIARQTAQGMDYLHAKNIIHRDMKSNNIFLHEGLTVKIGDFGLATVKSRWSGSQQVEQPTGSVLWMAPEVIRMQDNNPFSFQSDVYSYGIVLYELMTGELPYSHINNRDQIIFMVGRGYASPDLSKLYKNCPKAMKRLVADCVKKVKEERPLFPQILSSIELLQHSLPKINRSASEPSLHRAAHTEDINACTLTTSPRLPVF

Record excerpt, results attached:
> print(dat)
                                   molecule  value.type  recorded.value
1  COc1cc2c(Sc3cccc(NC(=O)Nc4cc(C(C)(C)C)on4)c3)ncnc2cc1OCCCN1CCCCC1 [Ex 76]          Kd  500 to 1000 nM
2  COCCOc1cc2ncnc(Oc3cccc(NC(=O)Nc4ccc(C(F)(F)F)c(OC)c4)c3)c2cc1OC [Ex 223]          Kd  500 to 1000 nM

Ask: # returns recorded Kd (system: RAF kinases (Homo sapiens, UniProt P04049)) for COc1cc2ncnc(Oc3cccc(NC(=O)Nc4cc(C(C)(C)C(F)(F)F)nn4-c4ccccc4)c3)c2cc1OC [Ex 306]
Result: > 1000 nM

Ask: Form field - read-out: Kd; system: RAF kinases (Homo sapiens, UniProt P04049); submitted item: COc1cc2ncnc(Sc3cccc(NC(=O)Nc4cc(C(C)(C)C)on4)c3)c2cc1OCCN1CCN(S(C)(=O)=O)CC1 [Ex 69]
Result: 250 to 500 nM

----------
target: UniProt:P04049; settings: read-out: RAF1 Kd; RAF1
pKd: −log10 of the molar value.
value.type: pKd

Illustrative cases are given below, each with its answer.
> print(dat)
                            compound.string    assay.system  value.type  recorded.value
1  COc1cc2ncnc(Oc3cccc(NC(=O)Nc4cc(C(C)(C)C)nn4-c4ccc(Cl)cc4)c3)c2cc1OC  UniProt:P04049         pKd          < 6.00
2  COc1cc2ncnc(Sc3cccc(NC(=O)Nc4cc(C(C)(C)C)nn4-c4ccccc4C)c3)c2cc1OC  UniProt:P04049         pKd          < 6.00
3  COc1cc2ncnc(Oc3cccc(NC(=O)Nc4cc(C(F)(F)C(F)(F)F)nn4-c4ccccc4)c3)c2cc1OC  UniProt:P04049         pKd          < 6.00

Ask: Quick check: pKd of CCn1nc(C(C)(C)C)cc1NC(=O)Nc1cccc(Sc2ncnc3cc(OC)c(OC)cc23)c1 ?
Result: > 6.60

Ask: State the recorded pKd for this entry: COc1cc2ncnc(Sc3cccc(NC(=O)Nc4cc(C(C)(C)C)nn4-c4ccccn4)c3)c2cc1OC
Result: < 6.00

Ask: What does the record list as pKd for COc1cc2ncnc(Sc3cccc(NC(=O)Nc4cc(C(C)(C)C)nn4-c4ccccc4C(F)(F)F)c3)c2cc1OC ?
Result: < 6.00

Ask: Looking for the measured pKd of CCc1cc(NC(=O)Nc2cccc(Oc3ncnc4cc(OC)c(OC)cc34)c2)n(-c2ccccc2)n1 , can you help?
Result: > 6.60

Ask: Form field: reported pKd of COCCOc1cc2ncnc(Oc3cccc(NC(=O)Nc4cc(C(F)(F)F)nn4C)c3)c2cc1OC
Result: > 6.60

----------
pKd values for the compounds below.
biological target: UniProtKB P15056; assay: biochemical
Sequence (P15056 whole entry): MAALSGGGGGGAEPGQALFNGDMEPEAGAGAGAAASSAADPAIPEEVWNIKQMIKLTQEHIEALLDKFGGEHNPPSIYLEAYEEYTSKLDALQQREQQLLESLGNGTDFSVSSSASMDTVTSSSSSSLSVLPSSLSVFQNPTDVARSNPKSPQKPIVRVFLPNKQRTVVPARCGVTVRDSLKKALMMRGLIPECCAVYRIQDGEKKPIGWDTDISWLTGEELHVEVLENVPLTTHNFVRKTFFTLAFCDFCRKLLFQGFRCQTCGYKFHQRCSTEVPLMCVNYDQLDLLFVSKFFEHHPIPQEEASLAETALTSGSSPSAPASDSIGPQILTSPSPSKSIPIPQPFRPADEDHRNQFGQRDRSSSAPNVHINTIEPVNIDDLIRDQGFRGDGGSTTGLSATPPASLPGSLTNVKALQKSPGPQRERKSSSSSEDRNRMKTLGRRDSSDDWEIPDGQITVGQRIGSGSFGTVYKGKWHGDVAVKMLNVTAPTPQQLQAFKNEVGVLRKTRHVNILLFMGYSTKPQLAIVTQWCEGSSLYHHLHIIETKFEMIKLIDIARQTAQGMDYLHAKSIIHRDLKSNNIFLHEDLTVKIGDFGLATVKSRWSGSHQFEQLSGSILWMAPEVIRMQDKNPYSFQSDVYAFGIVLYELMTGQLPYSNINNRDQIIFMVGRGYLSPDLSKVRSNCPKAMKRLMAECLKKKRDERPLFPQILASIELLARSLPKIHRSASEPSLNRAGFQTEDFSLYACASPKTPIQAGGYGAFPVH
pKd: −log10 of the molar value.

Ask: Bench note: what pKd did COc1cc2ncnc(Sc3cccc(NC(=O)Nc4cc(C(C)(C)C)on4)c3)c2cc1OCCCN1CCOCC1 show?
Result: 6.30 to 6.60

Ask: If you can, please state the reported pKd value of COc1ccc(-n2nc(C(C)(C)C)cc2NC(=O)Nc2cccc(Oc3ncnc4cc(OC)c(OC)cc34)c2)cc1 .
Result: 6.30 to 6.60

Ask: Form field: reported pKd of CCOc1cc2ncnc(Sc3cccc(NC(=O)Nc4cc(C(C)(C)C)on4)c3)c2cc1OC
Result: 6.00 to 6.30

Ask: Data request, read-out pKd, for COc1cc2c(Oc3cccc(NC(=O)Nc4cc(C(C)(C)C)on4)c3)ncnc2cc1OCCCN1CCN(S(C)(=O)=O)CC1
Result: 6.00 to 6.30

Ask: Which pKd reading was recorded for the compound COc1cc2ncnc(Oc3ccc(Cl)c(NC(=O)Nc4cc(C(C)(C)C)on4)c3)c2cc1OC ?
Result: 6.30 to 6.60
